system.name: HLA-A*0201 (human, UniProt A*02:01)
assay: REVEAL MHC binding assay (ProImmune)
In this section we review reported % Pass/fail control values for a set of binders.

Use the examples below as a reference point.
Enquiry: // % Pass/fail control lookup, key: SLTLGNVFV [Peptide ID 122 SLTLGNVFV (CD53)]
Return: 150 % of pass/fail control

Enquiry: // % Pass/fail control lookup, key: FLQDTFPQV (Modified peptide) [Peptide ID 132 FLQDTFPQV (CD127, modified peptide)]
Return: 216 % of pass/fail control

Next:
Enquiry: // % Pass/fail control lookup, key: SLAQVVMKV [Peptide ID 20 SLAQVVMKV (CD11a)]
Return: 155 % of pass/fail control

Enquiry: // % Pass/fail control lookup, key: DMKDSIWWV [Peptide ID 37 DMKDSIWWV (PU.1)]
Return: 131 % of pass/fail control

Enquiry: // % Pass/fail control lookup, key: RLFEQVMRI [Peptide ID 43 RLFEQVMRI (MPO)]
Return: 192 % of pass/fail control

Enquiry: // % Pass/fail control lookup, key: SLQSGILTL [Peptide ID 11 SLQSGILTL (CD127)]
Return: 181 % of pass/fail control

Enquiry: // % Pass/fail control lookup, key: NLEEDAYWV [Peptide ID 57 NLEEDAYWV (CD11a)]
Return: 64.9 % of pass/fail control
